# Tested on: HCV 1b genotype replicon
# procedure text: HCV replicon assay (qRT-PCR or luciferase), genotype 1b
# Format: cell-based
# conditions used: Hepatitis C virus, Table 12, numeric values, read-out: 1b EC50
readout label: EC50 (nM)
Give bare numbers, in nM.

Batch lookup, EC50 per entry.
1. COC(=O)N[C@H](C(=O)N1CCC[C@H]1c1ncc(-c2ccc(C#Cc3ccc4nc([C@@H]5C[C@]6(CC(C)=NO6)CN5C(=O)[C@@H](NC(=O)OC)C(C)C)[nH]c4c3)cc2)[nH]1)C(C)C [Example 554]
2. COC(=O)N[C@H](C(=O)N1C[C@H](F)C[C@H]1c1nc(-c2ccc(C#Cc3ccc4[nH]c([C@@H]5C[C@@]6(CCCO6)CN5C(=O)[C@@H](NC(=O)OC)C(C)C)nc4c3)cc2)c[nH]1)C(C)C [Example 629]

**Result**
1: 0.028; 2: 0.017

Batch lookup, EC50 per entry.
1. COC(=O)N[C@H](C(=O)N1C[C@]2(C[C@H]1c1ncc(-c3ccc(C#Cc4ccc5nc([C@@H]6CC7(CC7)CN6C(=O)[C@@H](NC(=O)OC)C(C)C)[nH]c5c4)cc3)[nH]1)CC2(F)F)C(C)C [Example 614]
2. COC(=O)N[C@H](C(=O)N1C[C@@]2(C[C@H]1c1nc(-c3ccc(C#Cc4ccc5[nH]c([C@@H]6CC7(CC7)CN6C(=O)[C@@H](NC(=O)OC)C(C)C)nc5c4)cc3)c[nH]1)CC2(F)F)C(C)C [Example 687]

**Result**
1. 0.004
2. 0.01

* * *

# Test system: HCV 1a genotype replicon
# procedure text: HCV replicon assay (qRT-PCR or luciferase), genotype 1a
# Format: cell-based
# conditions used: Hepatitis C virus, Table 12, range class, read-out: 1a EC50 Range
readout label: EC50

| molecule smiles | test target | value |
| --- | --- | --- |
| COC(=O)N[C@H](C(=O)N1CCC[C@H]1c1ncc(-c2ccc(C#Cc3ccc4nc([C@@H]5C[C@@]6(CCC(=O)O6)CN5C(=O)[C@@H](NC(=O)OC)C(C)C)[nH]c4c3)cc2)[nH]1)C(C)C | HCV 1a genotype replicon | < 1 nM |

Batch lookup, EC50 per entry.
1. COC(=O)N[C@H](C(=O)N1CCC[C@H]1c1nc(-c2ccc3nc(-c4ccc5[nH]c([C@@H]6CC7(CC7)CN6C(=O)[C@@H](NC(=O)OC)C(C)C)nc5c4)ncc3c2)c[nH]1)C(C)C
2. COC(=O)N[C@H](C(=O)N1CC2(CC2)C[C@H]1c1ncc(-c2ccc(C#Cc3ccc4nc([C@@H]5C[C@]6(CCCOC6)CN5C(=O)[C@@H](NC(=O)OC)C(C)C)[nH]c4c3)cc2)[nH]1)C(C)C

**Result**
< 1 nM
< 1 nM

* * *

# System: HCV 1b genotype replicon
# procedure text: HCV replicon assay (qRT-PCR or luciferase), genotype 1b
# Type: cell-based
# conditions used: Hepatitis C virus, Table 12, numeric values, read-out: 1b EC50
readout label: EC50 (nM)
Answers are plain numbers, in nM.

Worked set:
| molecule smiles | units symbol | EC50 |
| --- | --- | --- |
| COC(=O)N[C@H](C(=O)N1CC(F)(F)C[C@H]1c1nc(-c2ccc(C#Cc3ccc4[nH]c([C@@H]5C[C@@]6(CCCO6)CN5C(=O)[C@@H](NC(=O)OC)C(C)C)nc4c3)cc2)c[nH]1)C(C)C | nM | 0.01 |
| COC(=O)N[C@H](C(=O)N1CCC[C@H]1c1nc(-c2ccc(C#Cc3ccc4[nH]c([C@@H]5C[C@@]6(CCCO6)CN5C(=O)[C@@H](NC(=O)OC)C(C)C)nc4c3)cc2)c[nH]1)C(C)C | nM | 0.013 |
| COC(=O)N[C@H](C(=O)N1CC2(CC2)C[C@H]1c1nc2ccc(C#Cc3ccc(-c4cnc([C@@H]5C[C@H]6C[C@H]6N5C(=O)[C@@H](NC(=O)OC)C(C)C)[nH]4)cc3)cc2[nH]1)C(C)C | nM | 0.004 |
| COC(=O)N[C@@H](CF)C(=O)N1CC2(CC2)C[C@H]1c1nc(-c2ccc(C#Cc3ccc4[nH]c([C@@H]5CC6(CC6)CN5C(=O)[C@@H](NC(=O)OC)C(C)C)nc4c3)cc2)c[nH]1 | nM | 0.005 |

Batch lookup, EC50 per entry.
1. COC(=O)N[C@H](C(=O)N1CCC[C@H]1c1ncc(-c2ccc3nc(-c4ccc5nc([C@@H]6CC7(CC7)CN6C(=O)[C@@H](NC(=O)OC)C(C)C)[nH]c5c4)cnc3c2)[nH]1)C(C)C
2. COC(=O)N[C@H](C(=O)N1CCC[C@H]1c1ncc(-c2ccc(C#Cc3ccc4nc([C@@H]5C[C@H](C6CC6)CN5C(=O)[C@@H](NC(=O)OC)C(C)C)[nH]c4c3)cc2)[nH]1)C(C)C
3. COC(=O)N[C@H](C(=O)N1CCC[C@H]1c1ncc(-c2ccc3cc(-c4ccc5nc([C@@H]6C[C@H](C7CC7)CN6C(=O)[C@@H](NC(=O)OC)C(C)C)[nH]c5c4)ccc3c2)[nH]1)C(C)C
4. COC(=O)N[C@H](C(=O)N1C[C@@](C)(F)C[C@H]1c1ncc(-c2ccc(C#Cc3ccc4nc([C@@H]5C[C@@]6(CCCO6)CN5C(=O)[C@@H](NC(=O)OC)C(C)C)[nH]c4c3)cc2)[nH]1)C(C)C

**Result**
[0.054, 0.007, 0.007, 0.02]

* * *

# System: HCV 1a genotype replicon
# procedure text: HCV replicon assay (qRT-PCR or luciferase), genotype 1a
# Type: cell-based
# conditions used: Hepatitis C virus, Table 12, range class, read-out: 1a EC50 Range
pEC50: −log10 of the molar value.
Consider the following molecules; for each one, report its pEC50.

| molecule smiles | pEC50 |
| --- | --- |
| COC(=O)N[C@H](C(=O)N1CC2(CC2)C[C@H]1c1ncc(-c2ccc(C#Cc3ccc4nc([C@@H]5CC6(CC6)CN5C(=O)[C@H](NC(=O)OC)C5CCCC5)[nH]c4c3)cc2)[nH]1)C(C)C | 8.00 to 9.00 |
| COC(=O)N[C@H](C(=O)N1CC2(CC2)C[C@H]1c1ncc(-c2ccc(C#Cc3ccc4nc([C@@H]5CC6(CC6)CN5C(=O)[C@@H](NC(=O)OC)C5CCCC5)[nH]c4c3)cc2)[nH]1)C(C)C | > 9.00 |
| COC(=O)N[C@H](C(=O)N1CC2(CC2)C[C@H]1c1nc2ccc(C#Cc3ccc(-c4cnc([C@@H]5CCCN5C(=O)[C@@H](NC(=O)OC)[C@@H](C)OC)[nH]4)cc3)cc2[nH]1)C(C)C | > 9.00 |
| COC(=O)N[C@H](C(=O)N1CC2(CC2)C[C@H]1c1nc2ccc(C#Cc3ccc(-c4cnc([C@@H]5C[C@@H](C)CN5C(=O)[C@@H](NC(=O)OC)C5CCOCC5)[nH]4)cc3)cc2[nH]1)C(C)C | > 9.00 |

Now look at this entry.
**Query** For the molecule shown here, `COC(=O)N[C@H](C(=O)N1CC2(CC2)C[C@H]1c1nc(-c2ccc(C#Cc3ccc4[nH]c([C@@H]5C[C@@]6(CCOC6)CN5C(=O)[C@@H](NC(=O)OC)C(C)C)nc4c3)cc2)c[nH]1)C(C)C` , give the reported pEC50.
**Result** > 9.00

* * *

# Tested on: HCV 1b genotype replicon
# procedure text: HCV replicon assay (qRT-PCR or luciferase), genotype 1b
# Assay type: cell-based
# conditions used: Hepatitis C virus, Table 12, numeric values, read-out: 1b EC50
Consider the following compounds; for each one, report its EC50.
One number for each entry, in nM.

Batch lookup, EC50 per entry.
1. COC(=O)N[C@H](C(=O)N1C[C@@H](C)C[C@H]1c1ncc(-c2ccc(C#Cc3ccc4nc([C@@H]5C[C@@]6(CCCO6)CN5C(=O)[C@@H](NC(=O)OC)C(C)C)[nH]c4c3)cc2)[nH]1)C(C)C
2. COC(=O)N[C@H](C(=O)N1CCC[C@H]1c1nc(-c2ccc(C#Cc3ccc4[nH]c([C@@H]5C[C@@]6(CCOC6)CN5C(=O)[C@@H](NC(=O)OC)C(C)C)nc4c3)cc2)c[nH]1)C(C)C

**Result**
1. 0.014
2. 0.011

**Query** For the compound shown here, `COC(=O)N[C@H](C(=O)N1CC2(CC2)C[C@H]1c1ncc(-c2ccc(C#Cc3ccc4nc([C@@H]5CC6(CC6)CN5C(=O)OC(C)(C)C)[nH]c4c3)cc2)[nH]1)C(C)C` , give the reported EC50.
**Result** 0.304

* * *

# Test system: HCV 1a genotype replicon
# procedure text: HCV replicon assay (qRT-PCR or luciferase), genotype 1a
# Assay type: cell-based
# conditions used: Hepatitis C virus, Table 12, range class, read-out: 1a EC50 Range
pEC50: −log10 of the molar value.
readout label: pEC50

| molecule smiles | pEC50 |
| --- | --- |
| COC(=O)N[C@H](C(=O)N1CC2(CC2)C[C@H]1c1nc2ccc(C#Cc3ccc(-c4cnc([C@@H]5CCCN5C(=O)OC(C)(C)C)[nH]4)cc3)cc2[nH]1)C(C)C | < 8.00 |
| COC(=O)N[C@H](C(=O)N1CCC[C@H]1c1nc(-c2ccc(C#Cc3ccc4[nH]c([C@@H]5C[C@]6(CCCO6)CN5C(=O)[C@@H](NC(=O)OC)C(C)C)nc4c3)cc2)c[nH]1)C(C)C | 8.00 to 9.00 |
| COC(=O)N[C@H](C(=O)N1CC2(CC2)C[C@H]1c1ncc(-c2ccc(C#Cc3ccc4nc([C@@H]5CC6(CC6)CN5C(=O)[C@H](NC(=O)OC)c5ccc(OC)cc5)[nH]c4c3)cc2)[nH]1)C(C)C | 8.00 to 9.00 |
| COC(=O)N[C@H](C(=O)N1CC2(CC2)C[C@H]1c1ncc(-c2ccc(C#Cc3ccc4nc([C@@H]5CC6(CC6)CN5C(=O)[C@H](NC(=O)OC)[C@H](C)c5ccccc5)[nH]c4c3)cc2)[nH]1)C(C)C | < 8.00 |

Now look at this entry.
**Query** For the compound shown here, `COC(=O)N[C@H](C(=O)N1CC2(CC2)C[C@H]1c1nc2ccc(C#Cc3ccc(-c4cnc([C@@H]5C[C@H]6C[C@H]6N5C(=O)[C@H](NC(=O)OC)c5cc(F)cc(F)c5)[nH]4)cc3)cc2[nH]1)C(C)C` , give the reported pEC50.
**Result** > 9.00
